This collection of values is drawn from paper PMC5059489.

Target: GSTO1 (Homo sapiens, UniProt P78417)
Sequence (P78417 1-241): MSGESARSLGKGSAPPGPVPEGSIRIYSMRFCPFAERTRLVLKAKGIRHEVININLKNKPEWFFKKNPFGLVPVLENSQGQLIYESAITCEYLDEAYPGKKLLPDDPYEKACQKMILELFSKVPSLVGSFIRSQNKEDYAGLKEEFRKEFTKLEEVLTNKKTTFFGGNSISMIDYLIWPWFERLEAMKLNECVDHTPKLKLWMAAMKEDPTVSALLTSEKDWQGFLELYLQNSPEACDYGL
Experiment: In-gel fluorescence competitive CMFDA binding assay, recombinant GSTO1
Settings: inhibition of CMFDA binding
quantity: GSTO binding assay (% Inhibition at 10 µM) Recombinant (%)

molecule=O=C(CCl)Nc1cc(C2CC2)nn1-c1ccccc1 unitdescriptor=% valueobserved=64.1
molecule=O=C(CCl)NNC(=O)c1ccc(Br)cc1 unitdescriptor=% valueobserved=58.4
molecule=CCN1CCN(c2ccc(NC(=O)CCl)cc2)CC1 unitdescriptor=% valueobserved=-8.5
molecule="N#CC(c1ccccc1)N1CCN(C(=O)CCl)CC1 (centres unmarked)" unitdescriptor=% valueobserved=62.3
molecule="COc1ccc(C2=NN(C(=O)CCl)C(c3cccc(OC)c3OC)C2)cc1 (centres unmarked)" unitdescriptor=% valueobserved=65.0
